Taken from patent US20040259851A1.

test: Megestrol Acetate in plasma samples by GC/MS; format: in vivo; details: human, 6 mg, Sub 8, 6 mg dose, 1 h post dosing
measurementType: concentration at 1 h (ng/mL)
Answers are plain numbers, in ng/mL.

For CC(=O)O[C@]1(C(C)=O)CC[C@H]2[C@@H]3C=C(C)C4=CC(=O)CC[C@]4(C)[C@H]3CC[C@@]21C [megestrol acetate] , what is its reported concentration at 1 h?
19.5

====

assay: Megestrol Acetate in plasma samples by GC/MS; type: in vivo; conditions: human, 6 mg, Sub 10, 6 mg dose, 8 h post dosing
measurementType: concentration at 8 h (ng/mL)
Answers are plain numbers, in ng/mL.

For CC(=O)O[C@]1(C(C)=O)CC[C@H]2[C@@H]3C=C(C)C4=CC(=O)CC[C@]4(C)[C@H]3CC[C@@]21C [megestrol acetate] , what is its reported concentration at 8 h?
4.95

====

test: Megestrol Acetate in plasma samples by GC/MS; format: in vivo; conditions: human, 6 mg, Sub 8, 6 mg dose, 24 h post dosing
measurementType: concentration at 24 h
Record the result as number plus unit.

For CC(=O)O[C@]1(C(C)=O)CC[C@H]2[C@@H]3C=C(C)C4=CC(=O)CC[C@]4(C)[C@H]3CC[C@@]21C [megestrol acetate] , what is its reported concentration at 24 h?
0.459 ng/mL

====

assay: Megestrol Acetate in plasma samples by GC/MS; assay type: in vivo; conditions: human, 1.5 mg, Sub 7, 1.5 mg dose, 24 h post dosing
measurementType: concentration at 24 h (ng/mL)
Numbers only, in ng/mL.

For CC(=O)O[C@]1(C(C)=O)CC[C@H]2[C@@H]3C=C(C)C4=CC(=O)CC[C@]4(C)[C@H]3CC[C@@]21C [megestrol acetate] , what is its reported concentration at 24 h?
0.771

====

assay: Megestrol Acetate in plasma samples by GC/MS; format: in vivo; conditions: human, 1.5 mg, Sub 9, 1.5 mg dose, 8 h post dosing
measurementType: concentration at 8 h

For CC(=O)O[C@]1(C(C)=O)CC[C@H]2[C@@H]3C=C(C)C4=CC(=O)CC[C@]4(C)[C@H]3CC[C@@]21C [megestrol acetate] , what is its reported concentration at 8 h?
1.64 ng/mL

====

test: Megestrol Acetate in plasma samples by GC/MS; type: in vivo; conditions: human, 6 mg, Sub 4, 6 mg dose, 24 h post dosing
measurementType: concentration at 24 h

For CC(=O)O[C@]1(C(C)=O)CC[C@H]2[C@@H]3C=C(C)C4=CC(=O)CC[C@]4(C)[C@H]3CC[C@@]21C [megestrol acetate] , what is its reported concentration at 24 h?
2.17 ng/mL

====

experiment: Megestrol Acetate in plasma samples by GC/MS; type: in vivo; details: human, 1.5 mg, Sub 3, 1.5 mg dose, 12 h post dosing
measurementType: concentration at 12 h
Record the result as number plus unit.

For CC(=O)O[C@]1(C(C)=O)CC[C@H]2[C@@H]3C=C(C)C4=CC(=O)CC[C@]4(C)[C@H]3CC[C@@]21C [megestrol acetate] , what is its reported concentration at 12 h?
1.98 ng/mL

====

experiment: Megestrol Acetate in plasma samples by GC/MS; format: in vivo; conditions: human, 6 mg, Sub 2, 6 mg dose, 36 h post dosing
measurementType: concentration at 36 h
Record the result as number plus unit.

For CC(=O)O[C@]1(C(C)=O)CC[C@H]2[C@@H]3C=C(C)C4=CC(=O)CC[C@]4(C)[C@H]3CC[C@@]21C [megestrol acetate] , what is its reported concentration at 36 h?
5.04 ng/mL
